Consider the following compounds; for each one, report its Emax.
Biological target: Mouse PPAR-γ (Mus musculus, UniProt P37238)
Construct: expressed in transfected cells; host or cells: CV-1 (CCL-70, ATCC)
Sequence (P37238 238-503 limits assumed): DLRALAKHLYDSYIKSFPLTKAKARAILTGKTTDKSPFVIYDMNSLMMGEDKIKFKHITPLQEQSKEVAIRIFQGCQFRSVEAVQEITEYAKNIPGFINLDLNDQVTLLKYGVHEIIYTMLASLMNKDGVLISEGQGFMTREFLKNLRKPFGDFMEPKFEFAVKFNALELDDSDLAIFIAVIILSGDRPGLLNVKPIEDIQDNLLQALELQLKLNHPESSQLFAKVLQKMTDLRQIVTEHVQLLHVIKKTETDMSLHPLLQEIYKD
Assay: transactivation assay (GAL4 chimeric receptor, luciferase) in CV-1 cells
Type: cell-based
Settings: CV-1; Relative Response % to maximum effects of the positive control drug; read-out: Max % Mouse PPAR-γ
Please state the value followed by its unit.

// query Fill in Emax for record CCO[C@@H](Cc1ccc(OCc2sc(-c3ccc(-c4cc(C(=O)NC)no4)cc3)cc2C)cc1)C(=O)O
// result 81%

// query Fill in Emax for record CCO[C@@H](Cc1ccc(OCc2sc(-c3ccc(-c4nnn(C)n4)cc3)cc2C)cc1)C(=O)O
// result 48%

// query Fill in Emax for record CCO[C@@H](Cc1ccc(OCc2sc(-c3ccc(-c4nc(C)c(C)o4)cc3)cc2C)cc1)C(=O)O
// result 81%

// query Fill in Emax for record CCO[C@@H](Cc1ccc(OCc2sc(-c3ccc(-c4csc(C)n4)cc3)cc2C)cc1)C(=O)O
// result 18%

// query Fill in Emax for record CCO[C@@H](Cc1ccc(OCc2sc(-c3ccc(-c4cc(C)no4)cc3)cc2C)cc1)C(=O)O
// result 34%

// query Fill in Emax for record CCO[C@@H](Cc1ccc(OCc2sc(-c3ccc(-c4noc(C)n4)cc3)cc2C)cc1)C(=O)O
// result 48%

// query Fill in Emax for record CCO[C@@H](Cc1ccc(OCc2sc(-c3ccc(C4=NCCCO4)cc3)cc2C)cc1)C(=O)O
// result 43%

----------
Consider the following molecules; for each one, report its Emax.
Target: Mouse PPAR-α (Mus musculus)
Construct: expressed in transfected cells; host or cells: CV-1 (CCL-70, ATCC)
Sequence (P23204 239-466 limits assumed): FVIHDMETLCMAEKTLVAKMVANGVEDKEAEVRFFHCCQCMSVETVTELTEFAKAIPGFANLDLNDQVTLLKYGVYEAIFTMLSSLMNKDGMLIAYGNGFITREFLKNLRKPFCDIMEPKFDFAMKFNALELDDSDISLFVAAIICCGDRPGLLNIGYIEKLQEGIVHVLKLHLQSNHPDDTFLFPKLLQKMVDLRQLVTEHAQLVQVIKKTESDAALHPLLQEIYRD
Test: transactivation assay (GAL4 chimeric receptor, luciferase) in CV-1 cells
Format: cell-based
Settings: CV-1; Relative Response % to maximum effects of the positive control drug; read-out: Max % Mouse PPAR-α
Give the value, in units of %, as a plain number.

// query Fill in Emax for record CCO[C@@H](Cc1ccc(OCc2sc(-c3ccc(C4=Nc5ccccc5OC4)cc3)cc2C)cc1)C(=O)O
// result 43

// query Fill in Emax for record CCO[C@@H](Cc1ccc(OCc2sc(-c3ccc(-c4noc(C)n4)cc3)cc2C)cc1)C(=O)O
// result 35

// query Fill in Emax for record CCO[C@@H](Cc1ccc(OCc2sc(-c3ccc(C(=O)N4CCOCC4)cc3)cc2C)cc1)C(=O)O
// result 11

// query Fill in Emax for record CCO[C@@H](Cc1ccc(OCc2sc(-c3ccc(-c4nc(C)c(C)o4)cc3)cc2C)cc1)C(=O)O
// result 31

// query Fill in Emax for record CCO[C@@H](Cc1ccc(OCc2sc(-c3ccc(-c4nnn(C)n4)cc3)cc2C)cc1)C(=O)O
// result 31

// query Fill in Emax for record CCO[C@@H](Cc1ccc(OCc2sc(-c3ccc(C4=NCCCO4)cc3)cc2C)cc1)C(=O)O
// result 19

// query Fill in Emax for record CCO[C@@H](Cc1ccc(OCc2sc(-c3ccc(-c4nnn(COC)n4)cc3)cc2C)cc1)C(=O)O
// result 9

// query Fill in Emax for record CCO[C@@H](Cc1ccc(OCc2sc(-c3ccc(-c4cc(C(C)(C)C)on4)cc3)cc2C)cc1)C(=O)O
// result 25
